- TEST_TARGET: Cellular tumor antigen p53 (Homo sapiens)
- EXPERIMENT_SUMMARY: TOX21_p53_BLA_p3_ratio: Tox21 HCT-116 p53 Agonism Beta-lactamase Assay, Ratio, Phase 3 (AID 2283596)
Records with an inconclusive call do not appear. Activity calls are given as the source filed them. How the source made its calls: active means hit-call score of the fitted dose curve at least 0.9, where 1 is the maximum; inconclusive means response in the unintended direction; inactive means score below 0.9.
Log the outcome using a class from Yes for active, No for inactive

- COMPOUND: "CC[C@H]1C[C@H]2[C@@H]3CCC4=CC(=O)CC[C@@H]4[C@H]3CC[C@]2(C)[C@H]1O"
  ASSIGNED_LABEL: "No"
- COMPOUND: "CN(C)C(=O)C(c1ccccc1)c1ccccc1"
  ASSIGNED_LABEL: "No"
- COMPOUND: "CC(=O)Nc1cc([As](=O)(O)O)ccc1O"
  ASSIGNED_LABEL: "No"
- COMPOUND: "N#CC(C#N)=NNc1cccc(Cl)c1"
  ASSIGNED_LABEL: "Yes"
- COMPOUND: "CNc1ccc(C(=O)CC(O)CCC(C)C2OC(=O)CC(O)CC(=O)CC(O)CC(O)CC(O)CC(O)CC3(O)CC(O)C(C(=O)OC)C(CC(O[C@@H]4O[C@H](C)[C@@H](O)[C@H](N)[C@@H]4O)/C=C/C=C/C=C/C=C/C=C/C=C/C=C/C2C)O3)cc1 (stereo partly specified) (tested in a mixture with another compound)"
  ASSIGNED_LABEL: "No"
- COMPOUND: "CCCCCCCCP(=O)(O)O"
  ASSIGNED_LABEL: "No"
- COMPOUND: "C=CC1CC=CCC1 (stereo unspecified)"
  ASSIGNED_LABEL: "No"
- COMPOUND: "CC(=O)OO"
  ASSIGNED_LABEL: "No"

Returns: the outcome recorded for CC1CCCC1.[C-]#[O+].[C-]#[O+].[C-]#[O+].[Mn] in this assay.
No

Each compound tested received a call. Report the one for O=C(OCCN1CCCCC1)C(O)(c1ccccc1)c1ccccc1 .
No

Fill in: this test's call for CC1(C)[C@H](C(=O)O[C@H](C#N)c2cccc(Oc3ccccc3)c2)[C@@H]1C=C(Br)Br is ___
No

Value source: PubChem BioAssay (EPA / NIEHS)
